Source of measurements: patent US11578055B2

experiment-summary: In Vitro Microsome Stability Assay (monkey)
Assay type: in vitro ADME
cond: monkey liver microsomes, 30 min w/ NADPH
observable: Liver Microsome Stability-% Left after 30 min w/ NADPH (%) Monkey
The reply should be a number in %, with the unit left off.

{"compound": "COc1cc(F)ccc1C1CN(S(=O)(=O)N2CCCN(CC3CCCCC3)CCCN(S(=O)(=O)c3ccc(N(C)C)cc3)C[C@H](C)C2)C1", "test-value": 25.8}
{"compound": "Cc1cccc(CN2CCCN(S(=O)(=O)c3ccc(N(C)C)cc3)C[C@H](C)CN(S(=O)(=O)N3CCc4cc(Cl)ccc4C3)CCC2)c1", "test-value": 80.6}
{"compound": "CC(C)N1CCCN(S(=O)(=O)c2ccc(N(C)C)cc2)C[C@H](C)CN(S(=O)(=O)N2CCc3cc(Cl)ccc3C2)CCC1", "test-value": 0.66}

Prompt: Reported Liver Microsome Stability-% Left after 30 min w/ NADPH (%) Monkey for "C[C@H]1CN(S(=O)(=O)c2ccc(N(C)C)cc2)CCCN(CCC(F)(F)F)CCCN(S(=O)(=O)N2CCc3cc(Cl)ccc3C2)C1" : what is it?
Completion: 12.8

Prompt: Now give it for C=C1CN(S(=O)(=O)c2ccc(N(C)C)cc2)C(C)CCN(CC2CCCCC2)CCCN(S(=O)(=O)N2CCC(c3ccccc3)CC2)C1 (stereo not drawn) too.
Completion: 0.98

Prompt: Try this compound too: CC1c2ccccc2CCN1S(=O)(=O)N1CCCN(CC2CCCCC2)CCCN(S(=O)(=O)c2ccc(N(C)C)cc2)C[C@H](C)C1 (stereo partly drawn)
Completion: 1.37
